Origin of the recorded values: the supplement of paper PMC11061612

Test system: HT-1376 (Bladder Carcinoma)
Experiment: Bliss excess, mean over the matrix (fraction); higher = more synergy;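 note: after 72 h of two-drug dosing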
measureName: Bliss excess
Respond with the number and no other words.

NC1(C(=O)N[C@@H](CCO)c2ccc(Cl)cc2)CCN(c2ncnc3[nH]ccc23)CC1 [Capivasertib] + COc1nnc2ccc(N3CCC(c4ccc(OCCN5CCN(C)C(=O)[C@H]5C)cc4)CC3)nn12 [AZD5153] (first compound max 10 µM, 7x7, partner max 1 µM) = -0.0317

I have this molecule here, Cc1c2c(nn1C)CSCc1cc(n(C)n1)CSc1cc(c3ccccc3c1)OCCCc1c(C(=O)O)n(C)c3c-2c(Cl)ccc13 [AZD5991] + C1CN(CCC1(C(=O)N[C@@H](CCO)C2=CC=C(C=C2)Cl)N)C3=NC=NC4=C3C=CN4 [Capivasertib] (first compound max 1 µM, 7x7, partner max 3 µM) , and I need its recorded Bliss excess.
-0.01

====

System: DEL (T-Cell Non-Hodgkin's Lymphoma)
Experiment: Bliss excess, mean over the matrix (fraction); higher = more synergy
measureName: Bliss excess
Respond with the number and no other words.

Recorded Bliss excess, per entry:
Cc1nc(Nc2ncc(C(=O)Nc3c(C)cccc3Cl)s2)cc(N2CCN(CCO)CC2)n1 [Dasatinib] + CC(=O)Nc1cccc(-n2c(=O)n(C3CC3)c(=O)c3c(Nc4ccc(I)cc4F)n(C)c(=O)c(C)c32)c1 [Trametinib] (first compound max 2 µM, 7x7, partner max 1 µM) = 0.0076
Cc1c2c(nn1C)CSCc1cc(n(C)n1)CSc1cc(c3ccccc3c1)OCCCc1c(C(=O)O)n(C)c3c-2c(Cl)ccc13 [AZD5991] + C[C@@H](Nc1cc(F)cc(F)c1)c1cc(C(=O)N(C)C)cc2c(=O)cc(N3CCOCC3)oc12 [AZD8186] (first compound max 1 µM, 7x7, partner max 3 µM) = 0.0058
Cc1cc2ncnn2cc1Nc1ncc2c(n1)n(C1CCOCC1)c(=O)n2C [AZD7648] + CN(C)CCCOc1ccc(-c2ccc3ncc4c(c3c2)n(C2CCOCC2)c(=O)n4C)cn1 [AZD0156] (first compound max 10 µM, 7x7, partner max 1 µM) = 0.0956
CC(=O)c1c(C)c2cnc(Nc3ccc(N4CCNCC4)cn3)nc2n(C2CCCC2)c1=O [Palbociclib] + CN(CC[C@H](CSC1=CC=CC=C1)NC2=C(C=C(C=C2)S(=O)(=O)NC(=O)C3=CC=C(C=C3)N4CCC(CC4)[C@H](C5=CC=CC=C5C6=CC=C(C=C6)Cl)O)S(=O)(=O)C(F)(F)F)CCO [AZD4320] (first compound max 10 µM, 7x7, partner max 1 µM) = -0.0135
Cc1cc2ncnn2cc1Nc1ncc2c(n1)n(C1CCOCC1)c(=O)n2C [AZD7648] + C[C@@H]1COCCN1C2=NC(=NC(=C2)C3(CC3)[S@](=N)(=O)C)C4=C5C=CNC5=NC=C4 [AZD6738] (first compound max 10 µM, 7x7, partner max 10 µM) = 0.0052
CN(CCO)CC[C@H](CSc1ccccc1)Nc1ccc(S(=O)(=O)NC(=O)c2ccc(N3CCC([C@@H](O)c4ccccc4-c4ccc(Cl)cc4)CC3)cc2)cc1S(=O)(=O)C(F)(F)F [AZD4320] + C1CN(CCC1(C(=O)N[C@@H](CCO)C2=CC=C(C=C2)Cl)N)C3=NC=NC4=C3C=CN4 [Capivasertib] (first compound max 1 µM, 7x7, partner max 3 µM) = -0.0028

Shift focus to the following entry.
I have this compound here, CN(CCO)CC[C@H](CSc1ccccc1)Nc1ccc(S(=O)(=O)NC(=O)c2ccc(N3CCC([C@@H](O)c4ccccc4-c4ccc(Cl)cc4)CC3)cc2)cc1S(=O)(=O)C(F)(F)F [AZD4320] + C[C@@H](Nc1cc(F)cc(F)c1)c1cc(C(=O)N(C)C)cc2c(=O)cc(N3CCOCC3)oc12 [AZD8186] (first compound max 1 µM, 7x7, partner max 3 µM) , and I need its recorded Bliss excess.
0.0784
